Assignment: determine reported T/C for the given molecules.
- Test system: Mus musculus
- PROCEDURE_SUMMARY: % T/C value was measured against Murine P388 Lymphocytic Leukemia cells in CDF1 mice at the dose 12.5 mg/kg
- Format: functional
Returns: string containing the numeric result and its unit.

1. CNC(=O)OCc1c(COC(=O)NC)c(-c2ccc(OC)cc2)n2c1CCC2 = 132%
2. CNC(=O)OCc1c(COC(=O)NC)c(-c2ccc(OC)cc2)n(C)c1C = 138%
3. CNC(=O)OCc1c(COC(=O)NC)c(-c2ccccc2)n(C)c1C = 130%
4. CC1Cc2ccccc2-c2c(COC(=O)NC3CCCCC3)c(COC(=O)NC3CCCCC3)cn21 (stereo not drawn) = 178%
5. CNC(=O)OCc1cn2c(c1COC(=O)NC)-c1ccccc1CC2C (stereo not drawn) = 153%

For each listed entry, give its T/C.
1. COc1ccc2c(c1)CCn1c(C)c(COC(=O)NC(C)C)c(COC(=O)NC(C)C)c1-2
2. CCNC(=O)OCc1cn2c(c1COC(=O)NCC)-c1ccccc1CC2C (stereo not drawn)

["153%", "185%"]

For the molecule shown here, COc1ccc2c(c1)CCn1c(C)c(COC(=O)NC(=O)NC3CCCCC3)c(COC(=O)NC(=O)NC3CCCCC3)c1-2 , give the reported T/C.
134%

Where do these numbers come from? They come from ChEMBL document CHEMBL1122755.
